The measured values listed here are drawn from patent US7807701B2.

system: CETP; test: Inhibitory effect exo vivo on CETP activity in total plasma of normal hamster; details: single oral dose 10 mg/kg, blood taken 2 hr after administration, average values
Here, each record is paired with measured CETP activity (%) 2 (hr later) data.
Respond with the bare value in %.

CCN(C[C@H]1CC[C@H](C(=O)O)CC1)c1ccc(OC(F)(F)F)cc1CN(Cc1cc(C(F)(F)F)cc(C(F)(F)F)c1)c1noc(C)n1.Cl [Example 109]    42.8
CCN(C[C@H]1CC[C@H](C(=O)O)CC1)c1ccc(C(F)(F)F)cc1CN(Cc1cc(C(F)(F)F)cc(C(F)(F)F)c1)c1nnn(C)n1.Cl [Example 96]    41.1
CCN(CCC(C)(C)CC(=O)O)c1cc2c(cc1CN(Cc1cc(C(F)(F)F)cc(C(F)(F)F)c1)c1nnn(C)n1)CCC2.Cl [Example 92]    46.9
CCN(CCC(C)(C)CC(=O)O)c1ccc(OC(F)(F)F)cc1CN(Cc1cc(C(F)(F)F)cc(C(F)(F)F)c1)c1noc(C)n1.Cl [Example 108]    53.8

Okay, now this molecule:
Input line: Report CETP activity (%) 2 (hr later) for CCN(CCC(C)(C)CC(=O)O)c1ccc(OC(F)(F)F)cc1CN(Cc1cc(C(F)(F)F)cc(C(F)(F)F)c1)c1ccn(C)n1.Cl [Example 107] please.
Output line: 41.9
